Form field: composite z-score (one value per entry).
# study system: E3 ubiquitin-protein ligase XIAP (Homo sapiens)
# protocol: small molecules binding XIAP protein – biophysical, small-molecule microarray, fluorescence 635 nm, primary screen (AID 1181);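 also: score merges 667 nm emission and signal to noise over triplicate slides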
# measurement context: higher = more signal

| compound | composite z-score |
| --- | --- |
| CC(C)[Si](C#C[Si](C(C)C)(C(C)C)C(C)C)(O[C@H](c1ccccc1)c1cn(Cc2ccccc2)nn1)C(C)C | 0.0368 |
| CC(C)C(CO)N1C(=O)[C@@H]2C3C(=O)OCCC/C=C\[C@H]3OC23C=CCN(c2ccc4ccccc4c2)C(=O)[C@@H]13 (some centres undefined) | 0.683 |
| CO[C@H]1O[C@H](CO)[C@@H](OC(=O)CCc2ccccc2)[C@@H]2OC(=O)[C@@H](Cc3ccccc3)C/C=C/C[C@H](Cc3ccccc3)C(=O)O[C@@H]12 | 0.913 |
| C=CC[C@]1(C(=O)N2CCOCC2)COC(c2ccc(OCCCO)cc2)=N1 | 0.0055 |
| C=CCOC(=O)[C@@H]1[C@H]2C(=O)O[C@H](c3ccccc3)[C@H](c3ccccc3)N2[C@H](c2ccc(OCCOC(=O)[C@@H]3C[C@@H]4C(=O)N[C@@H](CCCC[N+](C)(C)C)C(=O)N4[C@@H]3c3ccc(O)cc3)cc2)[C@@]12C(=O)Nc1ccc(I)cc12 | -0.124 |
| CO[C@H]1O[C@H](CO)[C@@H](OC(=O)Nc2ccccc2)[C@H](OC(=O)c2cc3ccccc3[nH]2)[C@H]1OC(=O)c1cc2ccccc2[nH]1 | 0.246 |
| CCC1=C2CN(Cc3ccccc3)[C@@H](C(=O)Cc3ccccc3)C2C=CCC1 (some centres undefined) | 0.0554 |
| CCCN1C(=O)[C@]2(Cc3ccccc31)N=C(c1ccc(OCCCO)cc1)O[C@@H]2c1ccccc1 | 0.0605 |
| C#CCN(Cc1ccccc1Br)[C@H](/C=C/c1ccccc1)[C@@H](O)Cc1ccccc1 | -0.0559 |
| CC(C)C[C@@H]1NC(=O)[C@@H]2C[C@H](C(=O)NCCCCCCN)[C@H](c3cccc(OCCO)c3)N2C1=O | 0.0264 |
| C=CC[C@@]1(C(=O)NCCCOC)N=C(c2ccc(OCCCO)cc2)O[C@@H]1c1ccccc1 | 0.065 |
| CC(C)c1ccc(NN2C(C(O)c3ccc(F)cc3)C=CC3C(=O)N(c4ccccc4)C(=O)C32)cc1 (centres undefined) | -0.226 |
| CCOC(=O)C[C@H]1[C@H](OC(=O)Cc2ccc3c(c2)OCO3)[C@@H](NC(=O)C2CCCCC2)c2cc(OCCCO)ccc2N1C(=O)c1ccccc1 | -0.173 |
| COCC(=C=CC[C@H](O)c1ccc(OCCO)cc1)CCO | 0.102 |

---

# study system: Albumin (Bos taurus)
# protocol: compounds binding labelled BSA control protein – biochemical, small-molecule microarray, Alexa647 label, 635/667 nm fluorescence, artefact control for SMM control protein annotation, profiling panel (AID 1118);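 also: score merges 667 nm emission intensity and signal-to-noise per printed compound spot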
# measurement context: BSA-A647 binding, fluorescence 635 nm, higher = more signal
Label scheme for composite z-score: lower than 0.2 is class 0, 0.2 and above is class 1.

| molecule | class label |
| --- | --- |
| O=C1CS(=O)(=O)C(c2cccc([N+](=O)[O-])c2)N1c1ccccc1 (centres undefined) | class 1 |
| C=C(COC)/C(=C/C[C@H](OC(=O)c1ccncc1)c1ccc(CO)o1)c1cnc2ccccc2c1 | class 0 |
| COC(=O)C/C=C/C[C@]1(O)C(=O)N(C)c2ccccc21 | class 0 |
| COc1ccccc1CN1C(=O)c2ccccc2[C@](Cc2ccccc2I)(C(=O)O)[C@@H]1c1ccc(CO)cc1 | class 1 |
| COCCOC(=O)N1C(=O)[C@@]2(c3cc(C#CC4=CCCCC4)ccc31)[C@H](c1ccccc1OCCO)N1[C@H](c3ccccc3)[C@H](c3ccccc3)OC(=O)[C@H]1[C@@H]2C(=O)NC[C@H](O)c1ccccc1 | class 0 |
| CC1CC/C=C\[C@H]2OC34C=CCN(c5ccc6ccccc6c5)C(=O)[C@H]3N(CCCO)C(=O)[C@@H]4C2C(=O)O1 (some centres undefined) | class 0 |
| CCCCCCCCCC(O)C1C=CC2C(=O)N(c3ccccc3)C(=O)C2N1Nc1cc(OC)c(OC)c(OC)c1 (centres undefined) | class 0 |
| CCCC[C@@H]1C[C@H]1[C@@H](NC(=O)c1cccs1)c1ccccc1C(F)(F)F | class 1 |
| C=C[C@@H](OC)[C@H](OC(=O)Nc1ccc(OC)cc1)c1ccc(O)c(F)c1 | class 0 |
| O=c1cccc(-c2ccc([N+](=O)[O-])cc2)o1 | class 0 |
| CCOC(=O)C[C@H]1[C@H](OC(=O)Cc2ccc3c(c2)OCO3)[C@@H](NC(=O)c2ccc3ccccc3n2)c2cc(OCCCO)ccc2N1C(=O)c1ccccc1 | class 0 |
| Cc1ccc(C(C)CC(O)C2C=CC3C(=O)N(c4ccccc4)C(=O)C3N2Nc2ccccc2)o1 (centres undefined) | class 1 |
| CN(C)C(=O)[C@]1(CCC(=O)OC(C)(C)C)N=C(c2ccc(OCCCO)cc2)O[C@@H]1c1ccccc1CN=[N+]=[N-] | class 1 |
| COC(=O)[C@@]1(Cc2ccccc2)[C@H]2c3cc(C(=O)N(C)C)n(Cc4ccc(C)o4)c3C[C@H]2CN1C(=O)c1ccccc1 | class 1 |

---

# protocol: change in splice reporter luminescence, either direction, cell-based, HEK293, spliceosome inhibition project, primary screen (AID 1101);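 also: HEK293 cells carrying a splicing-competent luciferase reporter gene; test concentration not given here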
# measurement context: HEK293 splicing luciferase reporter, 24 h, higher = more signal, called active from +8 up or from −8 down
Form field: z-score (one value per entry).

| molecule | z-score |
| --- | --- |
| COCCOC(=O)N1C(=O)[C@@]2(c3cc(C#CC4=CCCCC4)ccc31)[C@H](c1ccccc1OCCO)N1[C@H](c3ccccc3)[C@H](c3ccccc3)OC(=O)[C@H]1[C@@H]2C(=O)N1CCN(c2ncccn2)CC1 | -1.46 |
| CC1CC/C=C\[C@H]2OC34C=CCN(c5ccc(Cl)cc5)C(=O)[C@H]3N(C(C)CO)C(=O)[C@]4(C)C2C(=O)O1 (some centres undefined) | -0.718 |
| COCCOC(=O)N1C(=O)[C@@]2(c3cc(C#CCNC(N)=O)ccc31)[C@H](C(N)=O)[C@H]1C(=O)O[C@H](c3ccccc3)[C@H](c3ccccc3)N1[C@@H]2c1ccccc1OCCO | 0.565 |
| CCCNC(=O)[C@@]1(Sc2ccc(C)cc2)CC(=O)N(C2Cc3ccccc3C2)[C@@H]1c1ccc(CO)cc1I | -0.272 |
| CC(C)c1ccc(NN2C(C(O)c3ccc(C#N)cc3)C=CC3C(=O)N(c4ccccc4)C(=O)C32)cc1 (centres undefined) | 0.44 |
| COCCCNC(=O)[C@@]1(CCC(=O)OC(C)(C)C)N=C(c2ccc(OCCCO)cc2)O[C@H]1c1ccccc1N=[N+]=[N-] | -0.912 |
| NC(=O)[C@@]1(Cc2ccccc2)COC(c2ccc(OCCCO)cc2)=N1 | 0.444 |
| COc1cc2c(cc1O)C(C1CC1)N(Cc1cccc(OC(F)(F)F)c1)CC2 (centres undefined) | 0.654 |
| CC(C)=C1C(=O)C(c2ccccc2)=C2CN3C(=O)N(CCc4ccccc4)C(=O)[C@]3(Cc3ccc(C(F)(F)F)cc3)[C@H]21 | 0.0205 |

---

# protocol: probe aCHRDL2 binding to arrayed compounds – biochemical, biotinylated probe, 635/667 nm fluorescence, primary screen (AID 1100)
# measurement context: small-molecule microarray, higher = more signal
quantity name: composite z-score

| compound | value measured |
| --- | --- |
| O=C(O)[C@@H]1C[C@@H]2C(=O)N3CCC[C@H]3C(=O)N2[C@@H]1c1ccc(O)cc1 | 0.11 |
| CCCN1C(=O)[C@@]2(Cc3ccccc31)N=C(c1ccc(OCCCO)cc1)O[C@H]2c1ccccc1 | 0.949 |
| CCCC1(C(=O)OC)C=C2C(=C(C)C(=O)C2C)CN1 (configuration not stated) | 0.974 |
| COc1ccc(CCNC(=O)[C@@]2(Sc3ccc(C)cc3)CC(=O)N(Cc3ccccc3C(F)(F)F)[C@@H]2c2ccc(CO)cc2I)cc1 | 1.08 |
| COCCOC(=O)N1C(=O)[C@@]2(c3cc(C#CC4(O)CCCCCC4)ccc31)[C@H](C(=O)Nc1nc3ccccc3s1)[C@H]1C(=O)O[C@H](c3ccccc3)[C@H](c3ccccc3)N1[C@@H]2c1ccc(O)cc1 | 0.407 |
| CC(C)(C)OC(=O)CC[C@@]1(C(=O)NCC(O)CO)N=C(c2ccc(OCCCO)cc2)O[C@@H]1c1ccccc1CN=[N+]=[N-] (some centres not stated) | 0.918 |
| C=C[C@H]1C(C(=O)OCC)=CC[C@@H](c2ccccc2)N1S(=O)(=O)c1ccc(C)cc1 | 0.587 |

---

# protocol: budding yeast growth modifiers under rapamycin – strain BY4716, OD600, 96 h, primary screen (AID 1091); also: test concentration not given here
# measurement context: S. cerevisiae BY4716 + rapamycin, higher = more signal, called active from +8 up or from −8 down

| molecule | z-score |
| --- | --- |
| COCCOC(=O)N1C(=O)[C@@]2(c3cc(C#CC4=CCCCC4)ccc31)[C@H](C(=O)Nc1nc3ccccc3s1)[C@H]1C(=O)O[C@H](c3ccccc3)[C@H](c3ccccc3)N1[C@@H]2c1ccc(O)cc1 | 0.364 |
| CCOC(=O)C1=C[C@@H](C(C)(C)C)N(S(=O)(=O)c2ccc(C)cc2)[C@H]1c1cccc2ccccc12 | 2.97 |
| COCCCNC(=O)[C@@]1(Sc2ccc(C)cc2)CC(=O)N(C2Cc3ccccc3C2)[C@@H]1c1ccc(CO)cc1 | -0.798 |
| CCCCCCCCCC(O)C1C=CC2C(=O)N(c3ccccc3)C(=O)C2N1Nc1cc(OC)c(OC)c(OC)c1 (centres undefined) | -0.236 |
| CCCC=C(CCC)[C@@H](NS(=O)(=O)c1ccc(C(F)(F)F)cc1)c1ccccc1 | 3.03 |
| COc1cccc(C)c1NC(=O)O[C@H]1[C@H](OC(=O)Nc2ccc3c(c2)OCO3)[C@@H](OC(=O)Nc2ccc3c(c2)OCO3)[C@@H](OC)O[C@@H]1CO | 8.01 |
| COc1ccc([Si](C)(C)[C@H]2[C@H](CC(=O)N(CCO)Cc3ccccc3)O[C@@]3(C(=O)N(C)c4c(Br)cc(C)cc43)[C@@H]2C)cc1 | 1.93 |
| CC[C@@H]1C=C(C(=O)O)[C@H](c2ccc(C#N)cc2)N1S(=O)(=O)c1ccc(C)cc1 | -0.104 |
| COC(=O)[C@@]1(Cc2ccccc2)[C@H]2c3cc(C(=O)N(C)C)n(Cc4ccc(C)o4)c3C[C@H]2CN1C(=O)c1ccccc1 | 0.982 |

Where these numbers come from: PubChem BioAssay
